# TESTED_SYSTEM: Aβ1-40 peptide (monomeric start material of the nucleation assay)
# MEASUREMENT_NOTES: cell-based or functional assay
Square brackets hold non-standard residues; d marks the D form. Ends that are not written are not given here.
OBSERVED_PROPERTY: Nucleation assay Δ lag at 1.25 µM compound

# BINDER, REPORTED
records = [
    ("{N,N‑diethyl}-[dA][dF][dF][dV][dL]-NH2 (also: TFA salt) [PPI-1006: TFA • N,N-diethyl-(affvl)-NH2]", "1 ratio of lag time to control"),
    ("{N,N‑diethyl}-G[dA][dF][dF][dV][dL]-NH2 (also: TFA salt) [PPI-1005: TFA • N,N-diethyl-(Gaffvl)-NH2]", "1 ratio of lag time to control"),
    ("G[dA][dF][dF][dV][dL]-NH2 (not fully specified (N-terminus); printed as N-isopropyl-(Gly-D-Ala-D-Phe-D-Phe-D-Val-D-Leu)-NH2; also: TFA salt) [PPI-970: TFA • N-isopropyl-(Gaffvl)-NH2]", "1 ratio of lag time to control"),
    ("{N,N‑dimethyl}-[dA][dF][dF][dV][dL]-NH2 (also: TFA salt) [PPI-913: TFA • N,N-dimethyl-(affvl)-NH2]", "1 ratio of lag time to control"),
    ("{N‑methyl}-G[dA][dF][dF][dV][dL]-NH2 (also: TFA salt) [PPI-968: TFA • N-methyl-(Gaffvl)-NH2]", "2 ratio of lag time to control"),
]

These entries and their values trace back to patent US20030236197A1.
